target: EPHB1 (UniProt P54762); test: phosphorylation enrichment, bacterial display (enrichment ratio); higher = better substrate or ligand; peptides without Tyr show the background
Sequence (P54762 whole entry, looked up): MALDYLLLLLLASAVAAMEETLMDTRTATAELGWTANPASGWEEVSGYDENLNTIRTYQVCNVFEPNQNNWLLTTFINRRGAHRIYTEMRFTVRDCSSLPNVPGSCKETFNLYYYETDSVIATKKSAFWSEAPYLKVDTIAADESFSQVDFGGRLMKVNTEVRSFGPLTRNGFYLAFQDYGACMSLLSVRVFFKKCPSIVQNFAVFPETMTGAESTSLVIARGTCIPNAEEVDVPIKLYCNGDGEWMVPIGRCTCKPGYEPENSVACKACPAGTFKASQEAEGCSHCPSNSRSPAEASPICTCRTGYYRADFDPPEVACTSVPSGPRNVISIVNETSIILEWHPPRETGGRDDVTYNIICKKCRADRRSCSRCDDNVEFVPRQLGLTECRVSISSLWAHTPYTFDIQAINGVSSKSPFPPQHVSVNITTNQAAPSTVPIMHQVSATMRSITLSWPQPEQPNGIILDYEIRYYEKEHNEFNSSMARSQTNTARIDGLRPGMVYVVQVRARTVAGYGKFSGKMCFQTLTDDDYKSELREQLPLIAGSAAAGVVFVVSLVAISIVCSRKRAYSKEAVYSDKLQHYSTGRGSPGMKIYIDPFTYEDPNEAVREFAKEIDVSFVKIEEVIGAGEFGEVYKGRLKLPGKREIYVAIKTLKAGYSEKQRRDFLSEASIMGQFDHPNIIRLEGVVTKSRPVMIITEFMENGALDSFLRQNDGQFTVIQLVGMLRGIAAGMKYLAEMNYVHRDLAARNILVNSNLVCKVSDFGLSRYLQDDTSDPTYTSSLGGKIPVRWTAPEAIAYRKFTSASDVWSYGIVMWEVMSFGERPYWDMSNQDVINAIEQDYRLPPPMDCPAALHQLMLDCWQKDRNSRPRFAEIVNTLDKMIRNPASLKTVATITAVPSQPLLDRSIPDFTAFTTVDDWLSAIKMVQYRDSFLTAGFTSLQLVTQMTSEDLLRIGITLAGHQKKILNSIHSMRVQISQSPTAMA
For each entry below, report its phosphorylation enrichment value.
Answers are plain numbers.

Here is how some sequences turned out for phosphorylation enrichment.
Residue String	phosphorylation enrichment
EKGEEYGGGGG [TUBA1A_Y451_E447K]	0.585
RGKEPYTKKAL [TTC21B_Y160]	0.596

Reported phosphorylation enrichment ( PTTMTYFPHFD [HBA1_Y43_K41M] ) = 0.603

---

molecular target: SHP2-C SH2; assay: SH2 binding enrichment of the phosphorylated peptide, bacterial display (enrichment ratio); higher = better substrate or ligand; peptides without Tyr show the background;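 also: peptide library displayed on the E. coli surface as eCPX fusions, selected cells deep-sequenced, score is each peptide's frequency after selection divided by its frequency in the input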
Assay Readout: SH2 binding enrichment
Answers are plain numbers.

Here is how some sequences turned out for SH2 binding enrichment.
Residue String	SH2 binding enrichment
VNCHQYDGLVG [ATP2A2_Y407_E412G]	0.686
VDGSVYKLHPS [GCK_Y413]	1.01
EFLKNYFTDKA [DSG2_Y775_R773K]	0.882
SEDANYMRVSC [TTC3_Y1288_K1289M]	0.746
DKGTLYIVEQI [PLBD1_Y375]	0.88
ITNVLYHVVGW [GBA_Y412_L410V]	1.24
RAEAPYLLVSN [LRIG1_Y1054_Q1053P]	0.645
QRTMKYTTATG [MCCC1_Y41]	0.432
SVVVPYEPPEF [TP53_Y220_V225F]	0.658
HSYNSYTYPRL [PAK5_Y316]	1.12

// each sequence listed below needs its SH2 binding enrichment
1. RREWFYEVIIV [BACE1_Y260_YF]
2. CTTIHYNYMCH [TP53_Y234_N239H]
3. DTKPAYQNLRQ [BOD1_Y82]
4. AAGGRYDGLVG [HARS1_Y363]
5. YSGDYYRIQGR [DDR2_Y741]
6. GGEEFYVHFVG [KAT8_Y90_R86G_YF]
7. PDMHSYMVRFN [GRIN2D_Y732_YF]

Result:
1. 0.741
2. 2.4
3. 0.666
4. 0.514
5. 0.673
6. 0.538
7. 0.548

// each sequence listed below needs its SH2 binding enrichment
1. SLIDMYSEVLA [OPA1_Y268_D273A]
2. HNLNFYKKTTN [FGFR3_Y648_D646N_YF]
3. VDTLWYKFLKR [EPM2A_Y86_F84L]
4. EKGEEYGGGGG [TUBA1A_Y451_E447K]
5. GGGCGYNRSSG [FUS_Y232_G230C]
6. AFGGGYGGVLT [KRT19_Y65_YF]
7. KELSSYKHLTL [SLIT2_Y776_N775S]
8. VTRLWYPVCFG [ITK_Y336_R335W]

Result:
1. 0.762
2. 0.632
3. 0.573
4. 0.729
5. 0.632
6. 0.719
7. 0.497
8. 0.936

// each sequence listed below needs its SH2 binding enrichment
1. RREWFYEVIIA [BACE1_Y260_V265A_YF]
2. GTYVIYVRFSG [FLNB_Y1687_G1691S]
3. IRFPPYTDWNQ [ALDH3B2_Y365_H361R_YF]
4. IGEGTYGQVFK [CDK13_Y716_YF]
5. PINLFYLMDLS [ITGB2_Y131_D128N_YF]
6. MTYVFYRENLR [NLRP14_Y443]

Result:
[0.605, 1.44, 0.748, 0.808, 0.781, 1.22]

// each sequence listed below needs its SH2 binding enrichment
1. HRNNNYEPNLF [BRCA2_Y57_K53R]
2. ATATEYHTTSH [SLC4A1_Y46_D45E]
3. SVTCTYTPALN [TP53_Y126_S127T]
4. RYVTRHIYNRE [HLA-DQB1_Y62_Y62H]

Result:
1: 0.651; 2: 0.518; 3: 0.574; 4: 0.64
